# SYSTEM_NAME: Sodium- and chloride-dependent GABA transporter 1 (Rattus norvegicus, UniProt P23978)
# ASSAY_SUMMARY: In vitro inhibition of [3H]GABA uptake in rat synaptosomes
pIC50: −log10 of the molar value.
ASSAY_ENDPOINT: pIC50

>>> data_value("Cc1ccccc1C(=CCOCCN1CCC[C@@H](C(=O)O)C1)c1ccccc1C")
6.94
>>> data_value("O=C(O)C1CCCN(CCOC(c2ccccc2)c2ccccc2)C1 (stereo unspecified)")
5.85
>>> data_value("O=C(O)[C@@H]1CCCN(CCCCCC(c2ccccc2)c2ccccc2)C1")
5.80
>>> data_value("Cc1ccccc1C(=CCOCCCN1CCC[C@@H](C(=O)O)C1)c1ccccc1C")
7.12
>>> data_value("O=C(O)[C@@H]1CCCN(CCCCCCCCN(c2ccccc2)c2ccccc2)C1")
5.89
>>> data_value("Cc1ccccc1/C(=C/COCCN1CCC[C@@H](C(=O)O)C1)c1ccccc1")
6.63
>>> data_value("Cc1ccccc1C(CCOCCN1CCC[C@@H](C(=O)O)C1)c1ccccc1C")
6.45
>>> data_value("O=C(O)[C@@H]1CCCN(CCCCCN(c2ccccc2)c2ccccc2)C1")
5.86
>>> data_value("O=C(O)[C@@H]1CCCN(CCCCCCN(c2ccccc2)c2ccccc2)C1")
6.18
>>> data_value("Cc1ccccc1C(CCOCCN1CCC[C@@H](C(=O)O)C1)c1ccccc1 (stereo partly specified)")
7.07

a. O=C(O)[C@@H]1CCCN(CCOCCN(c2ccccc2)c2ccccc2)C1
b. O=C(O)[C@@H]1CCCN(CCCCCCCN(c2ccccc2)c2ccccc2)C1
Lab note: check whether a or b shows the higher recorded pIC50. When you have decided, please share the label of that item.
a
(a: 7.05, b: 6.63)

Origin of the recorded values: ChEMBL document CHEMBL1132444
